Biological target: RORγ (UniProt P51449)
Test: RORγ Gal4 Reporter Gene Assay in 293T cells (firefly and renilla luciferase)
Assay type: cell-based, human
Conditions: third value of the cell; Gal4 reporter gene assay in 293T cells, renilla normalised luciferase
List of pIC50 (REN) values.
Write no unit; give the number alone.

Use the examples below as a reference point.
Cc1c(C(=O)NC2SC(=O)NC2=O)cc(-c2cc(C(C)(C)C)c3c(c2)C2(CCO3)CC2)n1CC1CCCCC1 (centres unmarked) [17/24] ... 5.7
Cc1c(C(=O)N[C@H]2C[C@H](C(=O)O)C2)cc(-c2ccc(S(=O)(=O)NC(C)(C)C)c3ccccc23)n1CC1CCCCC1 [17/240] ... 7.6
Cc1c(C(=O)N[C@H]2C[C@H](C(=O)O)C2)cc(-c2cc(C(C)(C)C)cc(C3(O)CC3)c2)n1CC1CCCCC1 [17/155] ... 7.0

Would you kindly look at the next entry?
Q: What does the data say about its pIC50 (REN)? Entry: Cc1c(S(=O)(=O)NC(C)(C)C)ccc(-c2cc(C(=O)N[C@H]3C[C@H](C(=O)O)C3)c(C)n2CC2CCCCC2)c1Cl [17/275]
Ans: 7.0

These data points were gathered from patent US9815851B2.
